subject.of.test: human FAAH (Homo sapiens)
Construct: T84 frozen pellets were homogenized in FAAH assay buffer; endogenous in cells; host or cells: T84 human colorectal carcinoma cells (ATCC CCL-248), homogenate/membranes
Sequence (O00519 whole entry): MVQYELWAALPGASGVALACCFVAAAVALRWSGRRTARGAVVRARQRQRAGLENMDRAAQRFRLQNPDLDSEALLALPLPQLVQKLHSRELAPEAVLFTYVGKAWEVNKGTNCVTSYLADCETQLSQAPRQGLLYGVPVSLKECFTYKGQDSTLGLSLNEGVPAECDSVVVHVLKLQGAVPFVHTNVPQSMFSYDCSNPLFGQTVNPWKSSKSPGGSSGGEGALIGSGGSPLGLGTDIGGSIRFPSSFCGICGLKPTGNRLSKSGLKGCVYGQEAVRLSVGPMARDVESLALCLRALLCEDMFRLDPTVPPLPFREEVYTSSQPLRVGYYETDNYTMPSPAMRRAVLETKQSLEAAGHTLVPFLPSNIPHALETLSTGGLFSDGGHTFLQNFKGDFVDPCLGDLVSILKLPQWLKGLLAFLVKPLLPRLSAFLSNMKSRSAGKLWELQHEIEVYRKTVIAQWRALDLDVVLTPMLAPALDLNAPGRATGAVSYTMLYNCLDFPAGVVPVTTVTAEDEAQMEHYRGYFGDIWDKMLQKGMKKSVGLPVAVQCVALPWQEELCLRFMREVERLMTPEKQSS
assay.text: FAAH charcoal filter-plate assay with 3H-anandamide in T84 membranes
Type: biochemical
reported.conditions: T84 membranes; room temperature 60 min; average ± S.E. of 2-5 experiments, each in triplicate; read-out: IC50
property.name: pIC50
// pIC50 is dimensionless: -log10 of concentration (M)

Query: I have this compound here, CCCCC/C=C\C/C=C\C/C=C\C/C=C\CCCC(=O)O [Arachidonic acid] , and I need its recorded pIC50.
Response: 6.03

Query: I have this compound here, CCCCCCCC/C=C\CCCCCCCC(=O)O [Oleic acid] , and I need its recorded pIC50.
Response: 5.71

Hello, the source for this data is patent US20070134753A1, in case you need it.
